experiment: activity coefficient (dimensionless); of the first substance listed, at infinite dilution; xn = mol fraction of the nth substance listed; details: 323.15 K; Liquid; dilutor; x1 = 0
metric: activity coefficient
Enter the number alone.

# activity coefficient lookup, item CCCC(C)=O [pentan-2-one] + CCCC[N+]1(C)CCCC1.O=S(=O)([N-]S(=O)(=O)C(F)(F)F)C(F)(F)F 0.68

Form field: reported activity coefficient of O [water] + CCCCCCCCn1cc[n+](C)c1.O=S(=O)([N-]S(=O)(=O)C(F)(F)F)C(F)(F)F 3.29

Name the recorded activity coefficient for C1CCCC1 [cyclopentane] + CCCCCCCCn1cc[n+](C)c1.O=S(=O)([N-]S(=O)(=O)C(F)(F)F)C(F)(F)F . 2.59

May I ask what activity coefficient has been recorded for CC(C)O [propan-2-ol] + CCCCCC[n+]1ccn(C)c1.O=S(=O)([N-]S(=O)(=O)C(F)(F)F)C(F)(F)F ? 1.37

Query (molecule): CCCCCC [hexane] + CCCCCCCCn1cc[n+](C)c1.O=S(=O)([N-]S(=O)(=O)C(F)(F)F)C(F)(F)F ; field requested: activity coefficient 5.13

GET /values?readout=activity coefficient&item= C1CCCC1 [cyclopentane] + CCCCCC[n+]1ccn(C)c1.O=S(=O)([N-]S(=O)(=O)C(F)(F)F)C(F)(F)F 3.27

I'd like to know its activity coefficient. The molecule in question is C=CCCC [1-pentene] + CCCCCCCCn1cc[n+](C)c1.O=S(=O)([N-]S(=O)(=O)C(F)(F)F)C(F)(F)F 2.53

---

assay: activity coefficient (dimensionless); of the first substance listed, at infinite dilution; xn = mol fraction of the nth substance listed; conditions: 323.15 K; Liquid; dilutor; x1 = 0
metric: activity coefficient
Please respond with just the number, no unit label.

Item CCCCC [pentane] + CCCCCCCCn1cc[n+](C)c1.O=S(=O)([N-]S(=O)(=O)C(F)(F)F)C(F)(F)F has what recorded activity coefficient? 3.87

Quick one: activity coefficient of CCC(C)=O [butanone] + CCCC[N+]1(C)CCCC1.O=S(=O)([N-]S(=O)(=O)C(F)(F)F)C(F)(F)F ? 0.55

Recorded activity coefficient of C=CCCC [1-pentene] + CCCC[N+]1(C)CCCC1.O=S(=O)([N-]S(=O)(=O)C(F)(F)F)C(F)(F)F , please. 4.81

What does the record list as activity coefficient for CCCCCCCC [octane] + CCCCCC[n+]1ccn(C)c1.O=S(=O)([N-]S(=O)(=O)C(F)(F)F)C(F)(F)F ? 13.1

---

experiment: activity coefficient (dimensionless); of the first substance listed, at infinite dilution; xn = mol fraction of the nth substance listed; details: 303.15 K; Liquid; Chromatography; x1 = 0
metric: activity coefficient
Please give the numeric answer without any surrounding text.

Which value of activity coefficient has been reported for CCCO [propan-1-ol] + CCCCCC[n+]1ccn(C)c1.O=S(=O)([N-]S(=O)(=O)C(F)(F)F)C(F)(F)F in the records? 1.9

Looking for the measured activity coefficient of CCCCCCCC [octane] + CCCCCCCCn1cc[n+](C)c1.O=S(=O)([N-]S(=O)(=O)C(F)(F)F)C(F)(F)F , can you help? 8.92

Entry under review: CCCCC [pentane] + CCCCCC[n+]1ccn(C)c1.O=S(=O)([N-]S(=O)(=O)C(F)(F)F)C(F)(F)F . Reported activity coefficient? 5.95

Fill blank: measured activity coefficient of the molecule C1CCCCC1 [cyclohexane] + CCCCCCCCn1cc[n+](C)c1.O=S(=O)([N-]S(=O)(=O)C(F)(F)F)C(F)(F)F is ____. 3.64

Which activity coefficient value belongs to Cc1ccc(C)cc1 [1,4-dimethylbenzene] + CCCCCC[n+]1ccn(C)c1.O=S(=O)([N-]S(=O)(=O)C(F)(F)F)C(F)(F)F ? 1.42

Need activity coefficient, item CCCCCC [hexane] + CCCCCC[n+]1ccn(C)c1.O=S(=O)([N-]S(=O)(=O)C(F)(F)F)C(F)(F)F 8.23

Can you look up the measured activity coefficient of C1=CCCCC1 [cyclohexene] + CCCCCC[n+]1ccn(C)c1.O=S(=O)([N-]S(=O)(=O)C(F)(F)F)C(F)(F)F for me? 3.42
